Assay: Mean residence time in rat
Type: ADME, organism-based
Details: in vivo
Experimental Endpoint: MRT (h)

{"Structure Smiles": "CC1(N2CCC(N(c3ccccc3)c3ccccc3)CC2)CCN(C(=O)c2cccc3ccccc23)CC1", "Readout Units": "h", "Assay Result": 14.4}

---

Assay: Cmax in monkeys at a dose of […] mg/kg
Assay type: ADME, organism-based
Settings: simiiformes, in vivo, 1 mg/kg
Experimental Endpoint: Cmax (ng/mL)

{"Structure Smiles": "CC1(N2CCC(N(c3ccccc3)c3ccccc3)CC2)CCN(C(=O)c2cccc3ccccc23)CC1", "Readout Units": "ng/mL", "Assay Result": 70}
{"Structure Smiles": "Cc1nc(-c2ccccc2)nc(C)c1C(=O)N1CCC(C)(N2CCC(N(c3ccccc3)c3ccccc3)CC2)CC1", "Readout Units": "ng/mL", "Assay Result": 12}
{"Structure Smiles": "Cc1cccc(C)c1C(=O)N1CCC(C)(N2CCC(N(Cc3ccccc3)c3ccccc3)CC2)CC1", "Readout Units": "ng/mL", "Assay Result": 7}
{"Structure Smiles": "Cc1cccc(C)c1C(=O)N1CCC(C)(N2CCC(N(c3ccccc3)c3ccccc3)CC2)CC1", "Readout Units": "ng/mL", "Assay Result": 81}
{"Structure Smiles": "Cc1nc[n+]([O-])c(C)c1C(=O)N1CCC(C)(N2CCC(N(c3ccccc3)c3ccccc3)CC2)CC1", "Readout Units": "ng/mL", "Assay Result": 91}
